Species on record: Homo sapiens
Test: To identify inhibition of the IFN signalling (Jak-Stat) pathway via expression of an eGFP reporter gene under the control of an IFN-stimulated response element (ISRE) containing MxA promoter.
Assay type: functional
Set-up: scale not given: direction of the effect not stated beside the values
Settings: 30 µM
Reported Percent Effect values are given for each entry in this list.

| COMPOUND | Percent Effect |
| --- | --- |
| Cc1nn(C)c2c(N3CCN(C(=O)C4CCC4)CC3)ncnc12 | 14.9% |
| CC(C)Oc1ccccc1CNC(=O)N1CCC(n2cncn2)CC1 | 7.86% |
| CCc1ccc(C(=O)NC2CCN(c3cnn(C)c3)C2=O)o1 (stereo unspecified) | -0.708% |
| CC(C)c1nccn1C1CCCN(C(=O)c2ccnc(N(C)C)c2)C1 (stereo unspecified) | 18.4% |
| CCCc1nc(CN2CCN(Cc3noc(CCC)n3)CC2)no1 | 7.72% |
| O=C(CCNC(=O)c1ccoc1)NCc1ccccc1F | 24% |

* * *

Molecular target: Chromo domain-containing protein 1 (Saccharomyces cerevisiae (strain ATCC 204508 / S288c) (Baker's yeast)) (UniProt P32657)
Sequence (P32657 whole entry, the tested form may be a part): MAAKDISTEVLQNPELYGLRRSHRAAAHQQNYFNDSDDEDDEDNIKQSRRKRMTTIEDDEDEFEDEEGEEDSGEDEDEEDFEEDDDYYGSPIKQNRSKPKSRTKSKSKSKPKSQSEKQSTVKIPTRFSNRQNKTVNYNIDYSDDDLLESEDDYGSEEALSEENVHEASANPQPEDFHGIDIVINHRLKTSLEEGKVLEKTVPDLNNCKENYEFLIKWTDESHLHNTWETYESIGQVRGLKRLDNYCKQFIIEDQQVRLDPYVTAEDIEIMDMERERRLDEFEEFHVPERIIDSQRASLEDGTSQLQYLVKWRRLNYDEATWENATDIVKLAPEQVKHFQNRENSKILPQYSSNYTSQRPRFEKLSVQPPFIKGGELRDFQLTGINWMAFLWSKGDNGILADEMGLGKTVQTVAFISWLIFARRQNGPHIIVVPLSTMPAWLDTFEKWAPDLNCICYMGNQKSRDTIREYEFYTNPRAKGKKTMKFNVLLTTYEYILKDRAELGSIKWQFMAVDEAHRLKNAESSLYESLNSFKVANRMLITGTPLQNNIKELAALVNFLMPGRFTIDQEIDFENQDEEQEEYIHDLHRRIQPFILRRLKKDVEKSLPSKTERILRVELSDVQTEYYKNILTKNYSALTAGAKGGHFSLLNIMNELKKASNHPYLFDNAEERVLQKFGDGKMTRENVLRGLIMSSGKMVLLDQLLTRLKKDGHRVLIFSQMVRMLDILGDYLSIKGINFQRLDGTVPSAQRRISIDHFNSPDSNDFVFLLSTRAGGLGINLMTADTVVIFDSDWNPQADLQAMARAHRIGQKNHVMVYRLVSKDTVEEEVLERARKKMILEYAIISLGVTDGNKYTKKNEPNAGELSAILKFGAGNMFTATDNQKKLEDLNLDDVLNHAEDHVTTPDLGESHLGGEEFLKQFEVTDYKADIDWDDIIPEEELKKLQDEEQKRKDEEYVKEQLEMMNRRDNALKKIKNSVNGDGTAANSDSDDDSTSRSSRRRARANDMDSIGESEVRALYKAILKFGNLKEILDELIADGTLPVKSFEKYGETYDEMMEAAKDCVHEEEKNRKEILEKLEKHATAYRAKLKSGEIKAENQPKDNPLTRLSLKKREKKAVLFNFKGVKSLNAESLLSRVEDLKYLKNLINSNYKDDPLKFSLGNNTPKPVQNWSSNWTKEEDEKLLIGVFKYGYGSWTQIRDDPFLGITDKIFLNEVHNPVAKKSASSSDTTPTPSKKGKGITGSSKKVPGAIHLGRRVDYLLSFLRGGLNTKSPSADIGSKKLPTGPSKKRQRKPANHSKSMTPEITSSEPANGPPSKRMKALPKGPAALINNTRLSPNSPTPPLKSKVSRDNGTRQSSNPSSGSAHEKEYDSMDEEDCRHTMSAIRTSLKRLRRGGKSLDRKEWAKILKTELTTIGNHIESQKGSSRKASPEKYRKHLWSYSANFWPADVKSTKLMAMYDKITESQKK
Test: ScCHD-1 Enzyme Inhibition Assay; further: in the data most compounds retested in dose-response had high values
Type: functional
Parameters: scale not given: direction of the effect not stated beside the values
Settings: 30 µM

| MOLECULE | Percent Effect / % |
| --- | --- |
| Cc1csc(CCCNC(=O)[C@H]2CNC[C@@H](C(=O)N3CCCC3)C2)n1 | -1.73 |
| CCCN(CC(=O)NC)C(=O)c1ccc(-c2ccsc2)nc1C | 91 |
| COCC(O)CNC(=O)c1coc(COc2ccc3sc(C)nc3c2)n1 (centres undefined) | -1.23 |
| Cc1cn(-c2ccccc2)nc1NS(=O)(=O)c1cccc(C(=O)O)c1 | -7.14 |
| O=C1NCCN1C1CCN(Cc2nc(-c3ccoc3)no2)CC1 | -2.45 |
| O=C(NC1CCN(c2snc3ccccc23)CC1)C1CCC1 | -33 |
| COCCN1CCC(NCc2cccnc2)C1 (centres undefined) | -3.65 |
| Cc1nc(C2CCCN(C(=O)c3cccc4c3OCO4)C2)no1 (centres undefined) | -23.7 |
| CCc1cc(NCCNc2cccnc2)n2nccc2n1 | -3.82 |
| Cn1cc(Cl)cc1C(=O)N1CCN(Cc2ccsc2)CC1 | -0.287 |
| CC(C)Oc1cccc(CNC(=O)NC(C)(C(=O)O)c2ccco2)c1 (centres undefined) | -0.593 |
| CC(C)c1nnc2ccc(N3CCC(C(=O)Nc4nccs4)CC3)nn12 | -2.21 |
| Cc1cnn(CC2CCCN2CCCc2nc3ccccc3o2)c1 (centres undefined) | -7.36 |
| CN(C)C(=O)N1CCN(Cc2ccccc2)[C@@H]2CS(=O)(=O)C[C@@H]21 | -3.7 |
| Cc1cc(C(=O)N2CC[C@@H]3CN(c4ncccn4)CCO[C@@H]3C2)c(C)o1 | -4.19 |
| c1cnnc(N2CCCC(NCc3ccc(-n4cccn4)cc3)C2)c1 (centres undefined) | -7.51 |
| COc1ccc(F)c(CN2CCC(c3cc(O)nc(C)n3)C2)c1 (centres undefined) | -15 |
| CCN(CCNC(=O)c1ccccc1OCCOC)C1CC1 | -34.3 |
| Cc1cc(C)c2cc(CNCC3CCCO3)c3nn(C)c(=O)n3c2c1 (centres undefined) | -28.2 |
| O=C(NCc1cc(=O)n2c(n1)CN(CC1CCOC1)CCC2)C1CC1 (centres undefined) | -3.69 |
| COc1ccc(C(=O)N2CCCCC2Cn2cccn2)c(F)c1 (centres undefined) | -9.15 |
| Cc1nccn1C1CCCN(C(=O)c2ccc(N3CCCC3)nn2)C1 (centres undefined) | -6.5 |
| N#Cc1ccc(OCCNc2cccc(C(=O)N3CCOCC3)c2)cc1 | 0.249 |
| CC(C)Nc1nc2c(cc1C(=O)NCC1CC1)CCNCC2 | -10.3 |

* * *

Molecular target: Sialic acid-binding Ig-like lectin 9 (Homo sapiens) (UniProt Q9Y336)
Sequence (Q9Y336 whole entry): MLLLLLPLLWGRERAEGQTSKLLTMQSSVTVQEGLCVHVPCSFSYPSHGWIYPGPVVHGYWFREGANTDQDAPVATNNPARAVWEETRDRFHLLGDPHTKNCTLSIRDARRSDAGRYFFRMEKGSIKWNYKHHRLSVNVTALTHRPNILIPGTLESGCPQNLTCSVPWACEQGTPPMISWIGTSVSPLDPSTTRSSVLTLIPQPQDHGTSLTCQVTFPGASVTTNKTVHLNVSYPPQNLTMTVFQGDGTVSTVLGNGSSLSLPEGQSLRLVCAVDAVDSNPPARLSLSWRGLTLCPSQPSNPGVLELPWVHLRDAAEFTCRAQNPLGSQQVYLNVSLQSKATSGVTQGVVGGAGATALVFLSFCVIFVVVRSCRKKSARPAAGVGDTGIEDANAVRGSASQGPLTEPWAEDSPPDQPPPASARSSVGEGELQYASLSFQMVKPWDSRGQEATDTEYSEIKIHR
Assay: Hs-Siglec9 ALPHAscreen SOP 20170721
Design: scale not given: direction of the effect not stated beside the values
Conditions: 10 µM
Reported Percent Effect values are given for each entry in this list.

| COMPOUND | VALUE UNITS | Percent Effect |
| --- | --- | --- |
| Cc1ccccc1Oc1ncccc1CNS(C)(=O)=O | % | 12.6 |
| CC(C)Cc1noc(CN2CCOC(Cn3cncn3)C2)n1 (stereo unspecified) | % | -4.71 |
| CC(C)(C)c1ccc(C2(C(=O)NCCS(N)(=O)=O)CC2)cc1 | % | 8.65 |
| O=C1CC(c2cccs2)c2cnn(C3CCCC3)c2N1 (stereo unspecified) | % | -6.09 |
| Cc1n[nH]cc1C(=O)N1CCCC(n2nnc3cc(F)ccc32)C1 (stereo unspecified) | % | -0.922 |
| Cc1ccc(CN(Cc2cccnc2)C2CC(C)(C)NC(C)(C)C2)s1 | % | -0.663 |

* * *

Reported Percent Effect values are given for each entry in this list.
Biological target: Tyrosyl-tRNA synthetase, putative (Trypanosoma cruzi (strain CL Brener))
Sequence (whole entry): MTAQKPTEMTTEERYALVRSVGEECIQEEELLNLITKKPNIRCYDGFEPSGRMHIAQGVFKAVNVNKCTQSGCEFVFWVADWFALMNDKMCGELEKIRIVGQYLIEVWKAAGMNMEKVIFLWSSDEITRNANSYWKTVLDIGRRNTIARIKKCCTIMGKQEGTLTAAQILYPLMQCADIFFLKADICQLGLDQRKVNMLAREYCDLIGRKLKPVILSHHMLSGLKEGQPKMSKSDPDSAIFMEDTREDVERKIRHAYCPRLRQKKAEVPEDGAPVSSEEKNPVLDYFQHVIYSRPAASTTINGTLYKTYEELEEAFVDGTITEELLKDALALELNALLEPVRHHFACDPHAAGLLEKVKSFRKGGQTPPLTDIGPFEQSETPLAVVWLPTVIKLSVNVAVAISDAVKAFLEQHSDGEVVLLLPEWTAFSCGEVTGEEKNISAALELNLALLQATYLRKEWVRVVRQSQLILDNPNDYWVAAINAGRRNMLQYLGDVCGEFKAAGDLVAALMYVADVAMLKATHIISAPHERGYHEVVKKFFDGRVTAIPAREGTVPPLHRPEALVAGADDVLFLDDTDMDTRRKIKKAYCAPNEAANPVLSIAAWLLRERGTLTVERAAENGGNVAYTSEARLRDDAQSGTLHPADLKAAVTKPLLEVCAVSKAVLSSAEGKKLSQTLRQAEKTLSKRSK
Assay: Trypanosoma cruzi tyrosyl tRNA synthetase (TcYRS) _High Tyrosine SOP; further: in the data most compounds retested in dose-response had high values
Assay type: functional
Parameters: scale not given: direction of the effect not stated beside the values
Settings: 30 µM

| COMPOUND | Percent Effect (%) |
| --- | --- |
| CCCc1nc(CN2CCN(CC(O)c3ccccc3)CC2)no1 (configuration not stated) | 5.21 |
| CCOC(=O)NC(CNC(=O)CCc1ccccn1)CC(C)C (configuration not stated) | -5.38 |
| CNc1cc2c(nn1)CCN(C(=O)c1ccc(-n3nccc3C)cc1)C2 | 6.67 |
| c1ccc(-n2nnnc2CN2CCCC(Cn3cncn3)C2)cc1 (configuration not stated) | 3.12 |
| COCCNC(=O)[C@@H]1CC[C@@H]2[C@@H](CCN2Cc2cnn(C)c2)O1 | 3.12 |
| Cc1ccn(-c2ccccc2NCc2ncc[nH]2)n1 | 4.3 |
| O=C(O)c1c[nH]c2cc(NS(=O)(=O)c3cccc(Cl)c3F)ccc12 | -11.7 |
| CC(NC(=O)c1cccs1)C(=O)NCc1cccnc1N1CCCCC1 (configuration not stated) | 1.94 |
| Cc1cc(CN(C)C(=O)C2CCCN(C(=O)c3ccc(Cl)cc3)C2)no1 (configuration not stated) | 2.15 |
| CC(N(C)Cc1nc2c(cnn2C)c(=O)[nH]1)C(C)(C)C (configuration not stated) | -1.98 |
| COC(=O)c1ccc(C2CC(=O)Oc3cc(C)[nH]c(=O)c32)cc1 (configuration not stated) | 6.35 |
| O=c1ccc(-c2cccs2)nn1CN1CCN(Cc2ccccc2)CC1 | 3.17 |
| CN(Cc1ccco1)C(=O)C1CSCN1C(=O)c1cccnc1 (configuration not stated) | -0.493 |
| Cn1nccc1CNC(=O)Nc1cc(C(F)(F)F)c[nH]c1=O | 6.37 |
| COc1ccccc1CC(=O)NS(=O)(=O)c1ccc(C(N)=O)cc1 | 3.88 |
| Cc1cc(C)n(CC2CCCCN2CC(=O)Nc2cccnc2)n1 (configuration not stated) | 0.546 |
| COc1ccc(C(=O)N2CCC(Nc3cccnn3)CC2)c(OC)c1 | -1.04 |
| Cc1ccc(S(=O)(=O)NC2CC2)cc1C | -1.05 |
| Cc1ccsc1CNC(=O)NC1CCCc2c1cnn2CCO (configuration not stated) | 6.01 |
| CCN(Cc1cccc(Cl)c1)Cn1nc(C)c2c(C)onc2c1=O | 1.48 |
| CCCn1nc2c(cc1=O)CN(CCS(C)(=O)=O)CC2 | 8.37 |
| Cc1nnc(NC(=O)CN(C)CC2CCCN2c2cccnn2)s1 (configuration not stated) | 5.94 |
| Cc1cc(C)n(C2CN(CC(O)c3ccc4c(c3)OCO4)C2)n1 (configuration not stated) | 15.5 |
| COC(=O)C(NC(=O)c1ccco1)c1cc(F)ccc1F (configuration not stated) | 1.94 |
| N#Cc1ccc(CN2CCN(C(=O)c3cc(C4CC4)[nH]n3)CC2)cc1 | 7.92 |
| CCSCCNC(=O)C(c1cccc(C)c1)N(C)C (configuration not stated) | 6.88 |
| COc1cccc(CNc2nc(O)cc(C3CC(=O)N(C)C3)n2)c1 (configuration not stated) | 5.38 |
| CC(C)N1CCc2c(C#N)c(NCc3ccco3)n3cnnc3c2C1 | 1.06 |
| Cn1ncc2c(=O)[nH]c(CN3CCCC3Cc3ccccc3)nc21 (configuration not stated) | 8.37 |
| CC(C)c1nn(C)c(Cl)c1CNCC(O)c1cccc(F)c1 (configuration not stated) | 7.62 |
| COc1cccc(CNCc2nnc3n2CC(C(F)(F)F)CC3)c1 (configuration not stated) | 6.45 |
| CCc1ncc(CNC2CC(=O)N(CCc3cccc(Cl)c3)C2)cn1 (configuration not stated) | 6.25 |
| O=C1[C@H]2CC[C@H](CN(Cc3ccccc3OC(F)F)C2)N1CC1CC1 | 7.94 |
| CCN(CC)C1CCN(C(=O)NCc2c(C)noc2C)CC1 | 7.29 |
| O=C(c1nc(=O)[nH][nH]1)N1CCCC(c2cc(C(F)(F)F)[nH]n2)C1 (configuration not stated) | 5.94 |
| O=C(NCCC1=CCCCC1)NCc1nnc2n1CCC2 | 7.39 |
| N#Cc1ccc(F)c(CN2CCCC2Cn2cccn2)c1 (configuration not stated) | 4.95 |
| O=C(C1CCC1)N1CCC2(COCc3cnc(N4CCOCC4)nc32)C1 (configuration not stated) | 2.08 |
| CN(C)c1nccc(N2CCO[C@H]3CN(CC4CCOCC4)C[C@H]32)n1 | 4.17 |
| Cc1nn(C)c(N2CCOCC2)c1CNC1CCc2ccccc2C1 (configuration not stated) | 9.36 |
| Cc1cc(CN2CCN(C(=O)NC(C)Cn3ccnc3)CC2)no1 (configuration not stated) | 3.43 |
| Cn1ncc2c(NCCOc3ccc(F)cc3)nc(C3CCCC3)nc21 | 5.38 |
| Cc1nc(NCc2cccnc2)c2c(n1)c(C)nn2C | 6.45 |
| COc1ccc(CCNC(=O)C2CCC(Cn3cnnn3)CC2)cc1 (configuration not stated) | 5.29 |
| COC(=O)c1cccc(C(=O)N2CCN(c3ccccc3F)CC2)n1 | 5.29 |
| Cc1nc2ccccc2nc1CN1CCCC1c1c(C)nn(C)c1C (configuration not stated) | 5.21 |
| Cc1ccc2c(c1)CN(C(=O)C1CCCCC1)C(CN(C)C)CO2 (configuration not stated) | 3.23 |
